The reported measurements were obtained from patent US4241056A.

Test system: escherichia coli ATCC 9637
value kind: MIC (µg/mL)

A selection of reference data follows.
CCCNc1ncc(NC(=O)N[C@@H](C(=O)N[C@@H]2C(=O)N3[C@@H]2SC(C)(C)[C@@H]3C(=O)O)c2ccc(O)cc2)c(O)n1	1.25
CC1(C)S[C@@H]2[C@H](NC(=O)[C@H](NC(=O)N3CCN(S(C)(=O)=O)C3=O)c3ccccc3)C(=O)N2[C@H]1C(=O)O [R, reference compound]	10
CNc1ncc(NC(=O)N[C@@H](C(=O)N[C@@H]2C(=O)N3[C@@H]2SC(C)(C)[C@@H]3C(=O)O)c2ccc(O)cc2)c(O)n1	2.5
CC1(C)S[C@@H]2[C@H](NC(=O)[C@H](NC(=O)N3CCNC3=O)c3ccccc3)C(=O)N2[C@H]1C(=O)O [Q, reference compound]	20
CC(=O)Nc1ncc(NC(=O)N[C@@H](C(=O)N[C@@H]2C(=O)N3[C@@H]2SC(C)(C)[C@@H]3C(=O)O)c2ccc(O)cc2)c(O)n1	5

a = CN(C)C(=O)Nc1ncc(NC(=O)N[C@@H](C(=O)N[C@@H]2C(=O)N3[C@@H]2SC(C)(C)[C@@H]3C(=O)O)c2ccc(O)cc2)c(O)n1
b = CC1(C)S[C@@H]2[C@H](NC(=O)[C@H](NC(=O)Nc3cnc(NCc4ccc(Cl)cc4)nc3O)c3ccc(O)cc3)C(=O)N2[C@H]1C(=O)O
c = CC1(C)S[C@@H]2[C@H](NC(=O)[C@H](NC(=O)Nc3cnc(Nc4ccc(Cl)c(Cl)c4)nc3O)c3ccc(O)cc3)C(=O)N2[C@H]1C(=O)O
Sort low-to-high on MIC, please. // format: requested-order list of labels b, c, a

* * *

Experiment: Serum (blood) level in rats
Type: in vivo
Settings: rat, sc, subcutaneous 10 mg/kg, 60 min., average from 3 rats
concentration at 1 h values by entry
Answer in ng/mL, number only, no unit symbol.

CC(=O)Nc1ncc(NC(=O)N[C@@H](C(=O)N[C@@H]2C(=O)N3[C@@H]2SC(C)(C)[C@@H]3C(=O)O)c2ccc(O)cc2)c(O)n1	5800
Cc1ncc(NC(=O)N[C@@H](C(=O)N[C@@H]2C(=O)N3[C@@H]2SC(C)(C)[C@@H]3C(=O)O)c2ccc(O)cc2)c(O)n1	7300
CC1(C)S[C@@H]2[C@H](NC(=O)[C@H](NC(=O)N3CCNC3=O)c3ccccc3)C(=O)N2[C@H]1C(=O)O [Q, reference compound]	3700
CC1(C)S[C@@H]2[C@H](NC(=O)[C@H](NC(=O)Nc3cncnc3O)c3ccc(O)cc3)C(=O)N2[C@H]1C(=O)O	8600
CC1(C)S[C@@H]2[C@H](NC(=O)[C@H](NC(=O)Nc3cnc(Nc4ccccc4)nc3O)c3ccc(O)cc3)C(=O)N2[C@H]1C(=O)O	5600
CC1(C)S[C@@H]2[C@H](NC(=O)[C@H](NC(=O)Nc3cnc(Cc4ccc(Cl)cc4)nc3O)c3ccc(O)cc3)C(=O)N2[C@H]1C(=O)O	7100

Here's the next entry for you.
Given `CC1(C)S[C@@H]2[C@H](NC(=O)[C@H](NC(=O)Nc3cnc(C4CC4)nc3O)c3ccc(O)cc3)C(=O)N2[C@H]1C(=O)O` , state its recorded concentration at 1 h. 6800

* * *

Test system: klebsiella pneumoniae 272
Assay: MIC, serial dilution test in the microtiter system
Assay type: cell-based
Conditions: 18 h, klebs pneum. 272, 37° C., 18-20 hours
value kind: MIC (µg/mL)

// known answers, use as guide
CC1(C)S[C@@H]2[C@H](NC(=O)[C@H](NC(=O)Nc3cnc(Nc4ccc(Cl)c(Cl)c4)nc3O)c3ccc(O)cc3)C(=O)N2[C@H]1C(=O)O	2.5
CC1(C)S[C@@H]2[C@H](NC(=O)[C@H](NC(=O)Nc3cnc(Cc4ccc(Cl)cc4)nc3O)c3ccc(O)cc3)C(=O)N2[C@H]1C(=O)O	10

1 = CNc1ncc(NC(=O)N[C@@H](C(=O)N[C@@H]2C(=O)N3[C@@H]2SC(C)(C)[C@@H]3C(=O)O)c2ccc(O)cc2)c(O)n1
2 = CC1(C)S[C@@H]2[C@H](NC(=O)[C@H](NC(=O)Nc3cnc(NC4CCCCC4)nc3O)c3ccc(O)cc3)C(=O)N2[C@H]1C(=O)O
3 = CC1(C)S[C@@H]2[C@H](NC(=O)[C@H](NC(=O)Nc3cnc(Nc4ccc(Cl)cc4)nc3O)c3ccc(O)cc3)C(=O)N2[C@H]1C(=O)O
# sort list by recorded MIC, greatest to least Give the labels in the order specified. 1, 2, 3
(1: 40 µg/mL, 2: 10 µg/mL, 3: 2.5 µg/mL)

* * *

The compounds below have reported MIC for klebsiella pneumoniae 272.
Please reply with the bare figure in µg/mL and do not write the unit itself.

Consider the worked cases shown below.
CC1(C)S[C@@H]2[C@H](NC(=O)[C@H](NC(=O)Nc3cnc(NCc4ccc(Cl)cc4)nc3O)c3ccc(O)cc3)C(=O)N2[C@H]1C(=O)O	10
CC1(C)S[C@@H]2[C@H](NC(=O)[C@H](NC(=O)Nc3cncnc3O)c3ccc(O)cc3)C(=O)N2[C@H]1C(=O)O	80
CC1(C)S[C@@H]2[C@H](NC(=O)[C@H](NC(=O)Nc3cnc(Nc4ccccc4)nc3O)c3ccc(O)cc3)C(=O)N2[C@H]1C(=O)O	5

Now, please, on to the next compound.
Return reported MIC; argument: `Cc1ncc(NC(=O)N[C@@H](C(=O)N[C@@H]2C(=O)N3[C@@H]2SC(C)(C)[C@@H]3C(=O)O)c2ccc(O)cc2)c(O)n1` 80
